z-score values for the compounds below.
test: S. cerevisiae RM11-1a growth modifiers, primary screen, strain RM11-1a, OD600, basal, 24 h (AID 1177); details: OD600, 24 h, higher = more signal, called active from +8 up or from −8 down;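 also: cultures grown under basal conditions with no added stressor; test concentration not given here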
Give the figure only, with no unit attached.

Reference set, count: 3
COCC1=C2[C@@H](CCc3ccccc3)OB(O)C[C@@H]2n2c(=O)n(-c3ccccc3)c(=O)n2C1	-0.352
COC(=O)[C@@]1(Cc2ccc(F)cc2)[C@@H]2C(=CC(=O)[C@H]2CC(=O)C(=O)N(C)C)CN1C(=O)c1ccccc1	1.38
CCOC(=O)NN=C1C[C@@H](O)[C@@H](O)[C@@H]2[C@@H]3C(=O)N(C4CCCCC4)C(=O)[C@@H]3CC[C@H]12	0.0422

Given the compound COc1ccc(COC(=O)NN=C2C[C@@H](O)[C@@H](O)[C@@H]3[C@@H]4C(=O)N(Cc5ccc6c(c5)OCO6)C(=O)[C@@H]4CC[C@@H]23)cc1 , what is its reported z-score?
-1.83
